# experimental-target: Human Bcl2 (residues 1-205) (Homo sapiens, UniProt P10415)
# Sequence (P10415 1-205): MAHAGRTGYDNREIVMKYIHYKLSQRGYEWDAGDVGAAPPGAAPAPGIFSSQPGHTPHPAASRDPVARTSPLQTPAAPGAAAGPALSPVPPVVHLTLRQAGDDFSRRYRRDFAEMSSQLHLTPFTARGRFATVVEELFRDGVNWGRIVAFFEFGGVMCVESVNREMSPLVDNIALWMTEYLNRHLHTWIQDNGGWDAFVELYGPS
# run-description: Isothermal titration calorimetry
# Assay type: binding
# test-settings: SD
No end group written: not given here.
We label by threshold. Values of Kd strictly beneath 3 µM are t. Values of 3 µM and up are f.

| sequence-data | label-class |
| --- | --- |
| ASTKKLSESLKRIGDELDSN [Bax] | f |
| QWAREIGAQLRRMADDLNAQ [Puma] | t |
| WAAQRYGRELRRMSDEFVDS [Bad] | f |
| DIIRNIARHLAQVGDSMDRS [Bid] | t |
| EGSDALALRLACIGDEMDVS [Bik] | f |
| QWAREIGAQLRRMGDDLNAQ [Puma_A+4G] | t |
| SAAQLTAARLKALADELHQR [Hrk_G+4A] | f |
| QAEVQIARKLQCIADQFHRL [Bmf] | t |
